// Minimum Inhibitory Concentration (activity) lookup, one value per entry
System: P. aeruginosa H187
Type: cell-based, Pseudomonas aeruginosa
Protocol conditions: H187
Where a SMILES comes first, the peptide text is derived from it. [ ]: non-standard residue; d: D form. Orn = NCCC[C@H](N)C(=O)O
Supply the numeric figure in µg/mL, leaving out any unit text.

[[record]]
compound = "CC(C)C[C@@H]1NC(=O)[C@H](CCCCN)NC(=O)[C@H](C(C)C)NC(=O)[C@H](CCCCN)NC(=O)[C@@H]2CCCN2C(=O)[C@@H](Cc2ccc(O)cc2)NC(=O)[C@H](CCCCN)NC(=O)[C@H](CC(C)C)NC(=O)[C@H](CCCCN)NC(=O)[C@@H](C(C)C)NC(=O)[C@H](CCCCN)NC(=O)[C@@H]2CCCN2C(=O)[C@@H](Cc2ccc(O)cc2)NC(=O)[C@H](CCCCN)NC1=O [GS14invV2]"
reported = 9

[[record]]
compound = "CC(C)C[C@@H]1NC(=O)[C@H](CCCCN)NC(=O)[C@H](C(C)C)NC(=O)[C@@H]2CCCN2C(=O)[C@@H](Cc2ccccc2)NC(=O)[C@H](CC(C)C)NC(=O)[C@H](CCCCN)NC(=O)[C@H](C(C)C)NC(=O)[C@H](CCCCN)NC(=O)[C@H](CC(C)C)NC(=O)[C@@H]2CCCN2C(=O)[C@@H](Cc2ccccc2)NC(=O)[C@H](C(C)C)NC(=O)[C@@H](CCCCN)NC1=O [Y2/F2]"
reported = 17

[[record]]
compound = "CC(C)C[C@@H]1NC(=O)[C@H](C(C)C)NC(=O)[C@H](CC(C)C)NC(=O)[C@@H]2CCCN2C(=O)[C@@H](Cc2ccc(O)cc2)NC(=O)[C@H](C(C)C)NC(=O)[C@H](CC(C)C)NC(=O)[C@H](C(C)C)NC(=O)[C@H](CCCCN)NC(=O)[C@H](CCCCN)NC(=O)[C@@H]2CCCN2C(=O)[C@@H](Cc2ccc(O)cc2)NC(=O)[C@H](CCCCN)NC(=O)[C@H](CCCCN)NC1=O [GS14napol]"
reported = 50

[[record]]
compound = "CC(C)C[C@@H]1NC(=O)[C@H](CCCCN)NC(=O)[C@H](C(C)C)NC(=O)[C@H](CCCCN)NC(=O)[C@H](CC(C)C)NC(=O)[C@@H]2CCCN2C(=O)[C@@H](Cc2ccc(O)cc2)NC(=O)[C@H](C(C)C)NC(=O)[C@@H](CCCCN)NC(=O)[C@H](CC(C)C)NC(=O)[C@@H](CCCCN)NC(=O)[C@H](C(C)C)NC(=O)[C@@H]2CCCN2C(=O)[C@@H](Cc2ccc(O)cc2)NC1=O [GS14K2K4]"
reported = 150

[[record]]
compound = "CC(C)C[C@@H]1NC(=O)[C@H](CCCCN)NC(=O)[C@H](C(C)C)NC(=O)[C@@H]2CCCN2C(=O)[C@@H](Cc2ccc(O)cc2)NC(=O)[C@H](CC(C)C)NC(=O)[C@@H](CCCCN)NC(=O)[C@H](C(C)C)NC(=O)[C@H](CCCCN)NC(=O)[C@H](CC(C)C)NC(=O)[C@@H]2CCCN2C(=O)[C@@H](Cc2ccc(O)cc2)NC(=O)[C@H](C(C)C)NC(=O)[C@H](CCCCN)NC1=O [GS14K11]"
reported = 37


So what does the record say about Minimum Inhibitory Concentration (activity) for CC(C)C[C@@H]1NC(=O)[C@H](CCCCN)NC(=O)[C@H](C(C)C)NC(=O)[C@@H]2CCCN2C(=O)[C@@H](Cc2ccc(O)cc2)NC(=O)[C@H](CC(C)C)NC(=O)[C@H](CCCCN)NC(=O)[C@H](C(C)C)NC(=O)[C@H](CCCCN)NC(=O)[C@H](CC(C)C)NC(=O)[C@@H]2CCCN2C(=O)[C@@H](Cc2ccc(O)cc2)NC(=O)[C@H](C(C)C)NC(=O)[C@@H](CCCCN)NC1=O [GS14K4] ? 25

Also CC(C)C[C@@H]1NC(=O)[C@H](CCCCN)NC(=O)[C@H](C(C)C)NC(=O)[C@@H]2CCCN2C(=O)[C@@H](Cc2ccc(O)cc2)NC(=O)[C@@H](CC(C)C)NC(=O)[C@H](CCCCN)NC(=O)[C@H](C(C)C)NC(=O)[C@H](CCCCN)NC(=O)[C@H](CC(C)C)NC(=O)[C@@H]2CCCN2C(=O)[C@@H](Cc2ccc(O)cc2)NC(=O)[C@H](C(C)C)NC(=O)[C@H](CCCCN)NC1=O [GS14L12] , if possible. 200

Also CC(C)C[C@@H]1NC(=O)[C@H](CCCN)NC(=O)[C@H](C(C)C)NC(=O)[C@@H]2CCCN2C(=O)[C@@H](Cc2ccccc2)NC(=O)[C@H](CC(C)C)NC(=O)[C@H](CCCN)NC(=O)[C@H](C(C)C)NC(=O)[C@@H]2CCCN2C(=O)[C@@H](Cc2ccccc2)NC1=O [GS, cyclo(Val-Orn-Leu-D-Phe-Pro)2, reference compound] (cyclo(V[Orn]L[dF]PV[Orn]L[dF]P)) , if possible. 25
